Test system: 282377-053-R-J1-PDC complex spheroid viability
Test: Anticancer human tumor 282377-053-R-J1-PDC patient-derived colon adenocarcinoma cell line growth inhibition [RAS]; active = viability on the fitted dose curve at most 10% of control; inactive = the rest
Conditions: second compound 0.316 µM; first compound 10 µM
Select the correct class. Options are active, inactive and nothing else.

q: How was CC(Nc1ccc2c(c1)OCCn1cc(N3C(=O)OCC3C(F)F)nc1-2)C(N)=O (stereo not drawn) + C#Cc1c(F)ccc2cc(O)cc(-c3ncc4c(N5CC6CCC(C5)N6)nc(OCC56CCCN5CC(F)C6)nc4c3F)c12 classified in this test?
a: inactive

q: Could you kindly confirm the outcome this assay logged for CC1(O)CCCC1n1c(=O)c(C(F)F)cc2cnc(NC3CCN(S(C)(=O)=O)CC3)nc21 (stereo not drawn) + C=CC(=O)N1CCN(c2nc(OCC3CCCN3C)nc3c(F)c(-c4nc(N)cc(C)c4C(F)(F)F)c(Cl)cc23)C(C)C1 ?
a: active

q: What was the test verdict on Cc1nc(N2CCC3(CC2)COC(C)C3N)c(CO)nc1Sc1ccnc(N)c1Cl (stereo not drawn) + C#Cc1c(F)ccc2cc(O)cc(-c3ncc4c(N5CC6CCC(C5)N6)nc(OCC56CCCN5CC(F)C6)nc4c3F)c12 ?
a: inactive

* * *

Tested on: 282377-053-R-J1-PDC complex spheroid viability
Assay: Anticancer human tumor 282377-053-R-J1-PDC cell line growth inhibition [RAS];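 also: spheroids exposed to agents for seven days before readout; luminescence viability as percent of DMSO vehicle control wells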
Conditions: second compound 0.00316 µM; first compound 0.316 µM; stronger effect = lower value
Quantity: viability, T/C (%)
The reply should contain only the number, in %.

q: Request the reported viability, T/C associated with CC(C)NCC(C(=O)N1CCN(c2ncnc3c2C(C)CC3O)CC1)c1ccc(Cl)cc1 (centres undefined) + C=CC(=O)N1CCN(c2nc(OCC3CCCN3C)nc3c(F)c(-c4nc(N)cc(C)c4C(F)(F)F)c(Cl)cc23)C(C)C1
a: 96.2

q: # query: viability, T/C of entry CC1(O)CCCC1n1c(=O)c(C(F)F)cc2cnc(NC3CCN(S(C)(=O)=O)CC3)nc21 (centres undefined) + C=CC(=O)N1CCN(c2nc(OCC3CCCN3C)nc3c(F)c(-c4nc(N)cc(C)c4C(F)(F)F)c(Cl)cc23)C(C)C1
a: 134

q: Query (compound): CC(Nc1ccc2c(c1)OCCn1cc(N3C(=O)OCC3C(F)F)nc1-2)C(N)=O (centres undefined) + C=CC(=O)N1CCN(c2nc(OCC3CCCN3C)nc3c(F)c(-c4nc(N)cc(C)c4C(F)(F)F)c(Cl)cc23)C(C)C1 ; field requested: viability, T/C
a: 94.3

q: Query: viability, T/C; subject: CCN1CCN(Cc2ccc(Nc3ncc(F)c(-c4cc(F)c5nc(C)n(C(C)C)c5c4)n3)nc2)CC1 + C=CC(=O)N1CCN(c2nc(OCC3CCCN3C)nc3c(F)c(-c4nc(N)cc(C)c4C(F)(F)F)c(Cl)cc23)C(C)C1
a: 131

* * *

Test system: 282377-053-R-J1-PDC complex spheroid viability
Test: Anticancer human tumor 282377-053-R-J1-PDC cell line growth inhibition [RAS];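 also: spheroids exposed to agents for seven days before readout; luminescence viability as percent of DMSO vehicle control wells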
Conditions: second compound 0.3 µM; first compound 0.1 µM; stronger effect = lower value
Quantity: viability, T/C (%)
Lab book: enter the figure in %, no units written.

q: Recorded viability, T/C for Cc1nc(N2CCC3(CC2)COC(C)C3N)c(CO)nc1Sc1ccnc(N)c1Cl (stereo not drawn) + CCn1c(-c2cccnc2C(C)OC)c2c3cc(ccc31)N1CCOC(CC(NC(=O)C(C(C)C)N(C)C(=O)C3(F)CCN(C(=O)C#CC(C)(C)N(C)C)CC3)C(=O)N3CCCC(N3)C(=O)OCC(C)(C)C2)C1 with 282377-053-R-J1-PDC complex spheroid viability, please?
a: 103

q: Short answer please: viability, T/C, 282377-053-R-J1-PDC complex spheroid viability, entry C=CC(=O)N1CCN(c2nc(OCC3CCCN3C)nc3c(F)c(-c4nc(N)cc(C)c4C(F)(F)F)c(Cl)cc23)C(C)C1 (stereo not drawn) + CCn1c(-c2cc(N3CCN(C)CC3)cnc2C(C)OC)c2c3cc(ccc31)-c1csc(n1)CC(NC(=O)C1CC1C)C(=O)N1CCCC(N1)C(=O)OCC(C)(C)C2
a: 120

q: What reported viability, T/C corresponds to CC(Nc1ccc2c(c1)OCCn1cc(N3C(=O)OCC3C(F)F)nc1-2)C(N)=O (stereo not drawn) + CCn1c(-c2cc(N3CCN(C)CC3)cnc2C(C)OC)c2c3cc(ccc31)-c1csc(n1)CC(NC(=O)C1CC1C)C(=O)N1CCCC(N1)C(=O)OCC(C)(C)C2 on 282377-053-R-J1-PDC complex spheroid viability?
a: 78.9

The values you see were collected from PubChem BioAssay AID2060905.
